In this section, each of the compounds is paired with its reported inhibition.
assay: HTRF signal interference by compounds, confirmation, artefact control for SUMOylation inhibitor project, biochemical, uHTS (AID 2069); conditions: HTRF interference counterscreen, fluorescence, at 35 µM, active compounds read high
Out of some 1,200 compounds screened, about 210 (18%) were called active. These entries were drawn from the full list.
Express your answer in %, writing the number without its unit.

// below: answered compounds
[
  {
    "compound": "Cc1nn2c3c(cnc2c1-c1ccc(Cl)cc1)C(=O)CC(c1ccco1)C3 (stereo unspecified)",
    "readoutKind": "inhibition",
    "measurement": -0.9
  },
  {
    "compound": "C=CCOc1c(Cl)cc(CNc2ccc3[nH]c(=O)[nH]c3c2)cc1OC",
    "readoutKind": "inhibition",
    "measurement": -12.6
  },
  {
    "compound": "O=C(CSc1ccc(Br)c2cccc(Cl)c12)Nc1ccc(S(=O)(=O)Nc2nccs2)cc1",
    "readoutKind": "inhibition",
    "measurement": -50.4
  },
  {
    "compound": "Cc1ccc(-n2nc(C)c3c2OC(N)=C(C#N)C3c2ccoc2)cc1 (stereo unspecified)",
    "readoutKind": "inhibition",
    "measurement": 1.75
  },
  {
    "compound": "Nc1ccc(N2CCN(CCCCN3C(=O)C4CCCN4C3=O)CC2)cc1 (stereo unspecified)",
    "readoutKind": "inhibition",
    "measurement": -7
  },
  {
    "compound": "COc1ccc(C2=NN(C(=O)c3cccs3)C(c3ccccc3O)C2)cc1 (stereo unspecified)",
    "readoutKind": "inhibition",
    "measurement": 8.65
  },
  {
    "compound": "S=C(NCc1ccc2c(c1)OCO2)Nc1ccc2nsnc2c1",
    "readoutKind": "inhibition",
    "measurement": -0.25
  },
  {
    "compound": "CC1=NN(c2ccccc2)C(=O)/C1=C/c1ccc(Cl)cc1",
    "readoutKind": "inhibition",
    "measurement": -10.2
  },
  {
    "compound": "Cc1n[nH]c(=S)n(NC(=O)/C=C/C(=O)Nn2c(=S)[nH]nc(C)c2=O)c1=O",
    "readoutKind": "inhibition",
    "measurement": 51.5
  },
  {
    "compound": "Cc1cccc2c(N=Nc3ccc(S(=O)(=O)Nc4cccc(Cl)c4)cc3[N+](=O)[O-])c(O)[nH]c12",
    "readoutKind": "inhibition",
    "measurement": -2.75
  }
]

Reported inhibition for COCCNC(=O)c1c(N)n(CCCn2ccnc2)c2nc3ccccc3nc12 : what is it?
40

Then O=C(O)c1cccc(Cn2c(Cl)c(/C=N/NC(=O)c3cc4ccccc4cc3O)sc2=O)c1 ?
-2

Then NC(=O)CC(NC(=O)Cc1ccc(Br)cc1)c1ccc(NCCOc2ccccc2)c([N+](=O)[O-])c1 (stereo unspecified) ?
7.3

Then CCc1c(C)c2cc(Cl)c(O)c(CN(C)C)c2oc1=O ?
37.2

Then O=[N+]([O-])c1ccc(C=Nc2ccc(Cl)c([N+](=O)[O-])c2)s1 ?
6.5

Then COc1ccc2cc3c(N)nn(C(=O)Cc4ccc(Cl)cc4)c3nc2c1 ?
23.9

Then O=C(NCCc1ccccc1)c1ccc2nc(-c3ccco3)c(-c3ccco3)nc2c1 ?
12.2

###

assay: HTRF signal interference by compounds, confirmation, artefact control for SUMOylation inhibitor project, biochemical, uHTS (AID 2069); details: HTRF interference counterscreen, fluorescence, at 35 µM, active compounds read high
Out of some 1,200 compounds screened, about 210 (18%) were called active. Not all results are given here.
readoutKind: inhibition (%)
Express your answer in %, writing the number without its unit.

// below: answered molecules
[
  {
    "molecule": "Cc1cnc(C(=O)OCC(=O)c2ccc(F)cc2)cn1",
    "inhibition (%)": -5.75
  },
  {
    "molecule": "O=c1c2ccccc2nc(/C=C/c2cccnc2)n1Cc1ccccc1",
    "inhibition (%)": 30.9
  },
  {
    "molecule": "Cc1[nH][nH]c(=O)c1C(c1ccc(-c2ccccc2C(=O)O)o1)c1c(C)[nH][nH]c1=O",
    "inhibition (%)": 9.65
  },
  {
    "molecule": "CC(C)c1ccc(NC(=O)C[n+]2ccn(C3=C([O-])c4ccccc4C3=O)c2)cc1",
    "inhibition (%)": -10.2
  },
  {
    "molecule": "S=c1[nH]nc(-c2ccncc2)n1/N=C/c1cn(-c2ccccc2)nc1-c1ccc(Cl)cc1",
    "inhibition (%)": -1.35
  },
  {
    "molecule": "Fc1cccc(Cl)c1C1Nc2cccc3cccc(c23)N1",
    "inhibition (%)": -14.8
  },
  {
    "molecule": "COc1ccc(/C=N/Nc2cc(N3CCCC3)nc(N3CCCC3)n2)cc1",
    "inhibition (%)": 27.9
  },
  {
    "molecule": "O=C(Nc1cccc2nsnc12)c1ccc(-c2cccc(Cl)c2)o1",
    "inhibition (%)": 25.9
  }
]

Reported inhibition for COc1cc2c(cc1OC)C(C)=NC1(CCCCC1)C2 : what is it?
31.6

Then COc1cccc(C(=O)Nc2cccc(C(=O)NC3=NN(c4c(Cl)cc(Cl)cc4Cl)C(=O)C3)c2)c1 ?
-11.8

Then O=C(N=Nc1c(O)[nH]c2ccc([N+](=O)[O-])cc12)c1ccccc1Cl ?
7.65

Then O=C(CN1C(=O)CSC1=O)Nc1ccc(C(=O)O)cc1 ?
1.7

Then CN(C)c1cc(N/N=C/c2ccc(Cl)cc2)nc(N(C)C)n1 ?
7

Then Cc1cc(/C=C2\C(=O)NN(c3ccccc3)C2=O)c(C)n1-c1ccccc1O ?
-1.5

###

assay: HTRF signal interference by compounds, confirmation, artefact control for SUMOylation inhibitor project, biochemical, uHTS (AID 2069); details: HTRF interference counterscreen, fluorescence, at 35 µM
The campaign covered roughly 1,200 compounds. About 210 (18%) were called active. Rule as the data show it: active = inhibition above about 30%; inactive = the rest. Only a sample is shown.
The categories you may choose from are active, inactive

[
  {
    "molSmiles": "COc1ccc2oc(=O)c(C(=O)NCc3ccco3)cc2c1",
    "class": "active"
  },
  {
    "molSmiles": "S=C(Nc1ccc(Cl)cc1)Nc1cccc2cnccc12",
    "class": "inactive"
  },
  {
    "molSmiles": "C[n+]1cccc2cccc([O-])c21",
    "class": "inactive"
  },
  {
    "molSmiles": "Oc1ccc2ccccc2c1C=Nc1ccc(Cl)cn1",
    "class": "active"
  },
  {
    "molSmiles": "O=C(O)c1cc(-c2ccco2)nn1-c1ccc(Cl)cc1",
    "class": "inactive"
  },
  {
    "molSmiles": "Cc1c2c(=O)n(-c3nc4ccccc4s3)nc-2cc(O)n1Cc1ccccc1",
    "class": "inactive"
  }
]

What call does the record list for Cc1ccc(NC(=O)Cn2c(=O)oc3cc(S(=O)(=O)N4CCC(C)CC4)ccc32)cc1C ?
inactive

Then COc1ccc(C(=O)Nc2ccc(-c3nnn(CC(=O)NCc4ccco4)n3)cc2)cc1 ?
inactive

Then Cc1cc(NC(=O)CSc2nnc(Nc3ccccc3C)s2)no1 ?
inactive

Then Cc1onc(-c2ccccc2Cl)c1C(=O)NCc1ccco1 ?
inactive

Then COc1ccc(CCn2c(N)c(C(=O)NCc3ccco3)c3nc4ccccc4nc32)cc1OC ?
inactive

###

test: HTRF signal interference by compounds, confirmation, artefact control for SUMOylation inhibitor project, biochemical, uHTS (AID 2069); conditions: HTRF interference counterscreen, fluorescence, at 35 µM
The whole screen tested about 1,200 compounds, of which about 210 (18%) were called active. No stated cut-off is given here; in the data, active means inhibition above about 30%; inactive means the rest. The list is a sample of the results.
The categories you may choose from are class 1 (active), class 0 (inactive)

These solved cases illustrate the format of a correct answer.
[
  {
    "compound": "NS(=O)(=O)c1ccc(NC2=CC(=O)C(=O)c3ccccc32)cc1",
    "class": "class 0"
  },
  {
    "compound": "COCCNC(=S)Nc1ccc2nsnc2c1",
    "class": "class 0"
  },
  {
    "compound": "COc1cccc(NC(=S)Nc2cccc3ccccc23)c1",
    "class": "class 0"
  },
  {
    "compound": "O=c1oc2cc(O)ccc2cc1-c1ccc(F)cc1",
    "class": "class 1"
  },
  {
    "compound": "Cc1nn(CC(=O)Nc2ccc(C(=O)N(C)C)cc2)c(=O)c2ccccc12",
    "class": "class 0"
  }
]

What call does the record list for O=C(Nc1cccc2cccc(NC(=O)c3ccco3)c12)c1ccco1 ?
class 0

###

test: HTRF signal interference by compounds, confirmation, artefact control for SUMOylation inhibitor project, biochemical, uHTS (AID 2069); settings: HTRF interference counterscreen, fluorescence, at 35 µM
About 210 (18%) of roughly 1,200 compounds were called active. No stated cut-off is given here; in the data, active means inhibition above about 30%; inactive means the rest. Not all results are given here.
The categories you may choose from are true (1) (active), false (0) (inactive)

These solved cases illustrate the format of a correct answer.
[
  {
    "molSmiles": "CCCCn1c(=O)[nH]c2nc3cc(N)ccc3nc2c1=O",
    "class": "true (1)"
  },
  {
    "molSmiles": "Cc1ncc(CO)c(/C=N/NC(=O)c2cc(O)c(O)c(O)c2)c1O",
    "class": "false (0)"
  },
  {
    "molSmiles": "CCn1c(NC(=O)c2ccccc2)nc2ccccc21",
    "class": "false (0)"
  },
  {
    "molSmiles": "Cc1sc2nc3ccc(NCc4ccco4)nn3c(=O)c2c1C",
    "class": "true (1)"
  },
  {
    "molSmiles": "CN(C)c1cc(N/N=C\\c2ccccc2)nc(N(C)C)n1",
    "class": "false (0)"
  },
  {
    "molSmiles": "Cc1ccccc1N=Cc1cc2c(cc1[N+](=O)[O-])OCO2",
    "class": "false (0)"
  },
  {
    "molSmiles": "O=[N+]([O-])c1ccccc1/C=C/C=N/n1c(-c2cc(-c3ccccc3)n[nH]2)n[nH]c1=S",
    "class": "false (0)"
  }
]

Consider the additional compound presented here.
What call does the record list for N#Cc1c(N(CCO)CCO)nc(N)c2c(N)nc3c(c12)CC(=O)N3Cc1cccs1 ?
false (0)
